Data credit: ChEMBL document CHEMBL3774389

Listed below: AUC(0-t) at 6 h values for each entry.
Test description: AUC(0 to 6 hrs) in rat at 5 mg/kg, po by LC-MS/MS
Type: ADME, organism-based
Set-up: time < 6 hr, dose 5 mg/kg, route oral
Measurement parameters: in vivo

Smiles str	AUC(0-t) at 6 h
C=C(C)[C@@H]1CC[C@]2(CO)CC[C@]3(C)[C@H](CC[C@@H]4[C@@]5(C)CC=C(c6ccc(C(=O)O)cc6)C(C)(C)[C@@H]5CC[C@]43C)[C@@H]12	2.14 µM·h

Continue with the molecule presented below.
Qu. Tell us which AUC(0-t) at 6 h value is on record for `C=C(C)[C@@H]1CC[C@]2(C(=O)O)CC[C@]3(C)[C@H](CC[C@@H]4[C@@]5(C)CC=C(c6ccc(C(=O)O)cc6)C(C)(C)[C@@H]5CC[C@]43C)[C@@H]12`
Ans. 5.72 µM·h

---

Test description: Cytotoxicity against human MT2 cells assessed as cell viability by redox dye assay
Assay type: cell-based
Listed below: CC50 values for each entry.
Give the number; µM is assumed, so skip it.

Smiles str	CC50 (µM)
C=C(C)[C@@H]1CC[C@]2(C(=O)O)CC[C@]3(C)[C@H](CC[C@@H]4[C@@]5(C)CC=C(c6cccc(S(=O)(=O)NC)c6)C(C)(C)[C@@H]5CC[C@]43C)[C@@H]12	13
C=C(C)[C@@H]1CC[C@]2(CO)CC[C@]3(C)[C@H](CC[C@@H]4[C@@]5(C)CC=C(c6ccc(C(=O)O)cn6)C(C)(C)[C@@H]5CC[C@]43C)[C@@H]12	4.3
C=C(C)[C@@H]1CC[C@]2(CO)CC[C@]3(C)[C@H](CC[C@@H]4[C@@]5(C)CC=C(c6csc(C(=O)O)c6)C(C)(C)[C@@H]5CC[C@]43C)[C@@H]12	14.1
C=C(C)[C@@H]1CC[C@]2(C(=O)O)CC[C@]3(C)[C@H](CC[C@@H]4[C@@]5(C)CC[C@H](OC(=O)CC(C)(C)CC(=O)O)C(C)(C)[C@@H]5CC[C@]43C)[C@@H]12	4.25

Continue with the compound presented below.
Qu. Tell us which CC50 value is on record for `C=C(C)[C@@H]1CC[C@]2(C(=O)O)CC[C@]3(C)[C@H](CC[C@@H]4[C@@]5(C)CC=C(c6ccc(NC(=O)CCC(=O)O)cc6)C(C)(C)[C@@H]5CC[C@]43C)[C@@H]12`
Ans. 7.73

---

Test description: Cytotoxicity against human MT2 cells assessed as cell viability by redox dye assay
Type: cell-based
Listed below: CC50 values for each entry.
Give the number; µM is assumed, so skip it.

Completed entries (count: 2):
Smiles str	Units symbol	CC50
C=C(C)[C@@H]1CC[C@]2(CO)CC[C@]3(C)[C@H](CC[C@@H]4[C@@]5(C)CC=C(c6ccc(C(=O)O)c(F)c6)C(C)(C)[C@@H]5CC[C@]43C)[C@@H]12	µM	18.8
C=C(C)[C@@H]1CC[C@]2(C(=O)O)CC[C@]3(C)[C@H](CC[C@@H]4[C@@]5(C)CC=C(c6ccc(C(=O)NC)cc6)C(C)(C)[C@@H]5CC[C@]43C)[C@@H]12	µM	22.6

Qu. Tell us which CC50 value is on record for `C=C(C)[C@@H]1CC[C@]2(C(=O)O)CC[C@]3(C)[C@H](CC[C@@H]4[C@@]5(C)CC=C(c6ccc(O)cc6)C(C)(C)[C@@H]5CC[C@]43C)[C@@H]12`
Ans. 13.4
